I'd be grateful if you could share measured Avg ANGPTL3, normalized to pre-treatment and control for these entries.
system: ANGPTL3 protein; assay: Example 7: serum ANGPTL3 protein by ELISA in mice; assay type: in vivo, C57bl/6 mice; set-up: key: ratio: (level/pre-treatment day -1 level) ÷ mean of D5W control group; conditions: Day 22, 0.5 mg/kg single SC injection on day 1, n=3
In the oligonucleotide strings, read from the 5' end, every base follows the letter of its sugar. An asterisk marks phosphorothioate; unmarked linkages are phosphodiester. Other units and linkages are bracketed, terminal groups are in braces. A string of capitals states the bases alone. {NAG37} = tridentate N-acetyl-galactosamine targeting ligand, structure (NAG37)s; [invAb] = inverted abasic unit; m = 2'-O-methyl; f = 2'-fluoro

Some substances with recorded Avg ANGPTL3, normalized to pre-treatment and control:
AD05488: RNAi agent duplex: antisense AM07235-AS, sense AM07234-SS (antisense mU*fA*mC*fUmGfAmUfCmAfAmAfUmAfUmGfUmUfGmAfG*mC; sense {NAG37}*[invAb]*mGmCmUmCmAmAmCmAfUfAfUmUmUmGmAmUmCmAmGmUmA*[invAb])
0.346
AD05308: RNAi agent duplex: antisense AM07003-AS, sense AM07002-SS (chain 1 mU*fG*mU*fUmGfAmAfUmUfAmAfUmGfUmCfCmAfUmGfG*mA; chain 2 {NAG37}*[invAb]*mUmCmCmAmUmGmGmAfCfAfUmUmAmAmUmUmCmAmAmCmA*[invAb])
0.440

Let us examine a further case.
Return Avg ANGPTL3, normalized to pre-treatment and control for the following substance: AD05777: RNAi agent duplex: antisense AM07235-AS, sense AM07610-SS (antisense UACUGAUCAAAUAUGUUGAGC; sense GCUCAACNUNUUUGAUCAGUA; (NAG37)s GalNAc ligand; RNAi agent antisense strand modified sequence; RNAi agent sense strand modified sequence; modified_base 8, 10 n = 2′-O-methyl-2-aminoadenosine-3′-phosphate)
0.257
